All values here come from patent US12522596B2.

test-details: Rat pharmacokinetics, intravenous dosing
Type: in vivo, Sprague-Dawley rats
condition-notes: male, Sprague-Dawley; rat plasma, 1 mg/kg IV (0.5 mg/mL)
I'd appreciate it if you could supply half-life values for the items below.
Return type: number; implicit unit h.

Input line: // returns reported half-life for input N#Cc1ccc(COc2cccc(C3CCN(Cc4nc5ccc(C(=O)O)cc5n4C[C@@H]4CCO4)CC3)n2)c(F)c1 [Reference Compound A, reference compound]
Output line: 0.613

Input line: Here is the next molecule: N#Cc1ccc(COc2cccc(C3CCN(Cc4nc5ccc(C(=O)O)cc5n4Cc4cncs4)CC3)n2)c(F)c1
Output line: 1.57

###

test-details: Pharmacokinetics in hGLP-1R mice after oral dosing
Format: in vivo, male C57BL/6J hGLP-1R mouse
condition-notes: male, C57BL/6J hGLP-1R, mouse, plasma, po, 0.3 mg/kg, hGLP-1R mouse plasma, PO 0.3 mg/kg, mean; read-out: MRT0-last
endpoint: MRT last (h)
Return type: number; implicit unit h.

Input line: // returns reported MRT last for input N#Cc1ccc(COc2cccc(C3CCN(Cc4nc5ccc(C(=O)O)cc5n4C[C@@H]4CCO4)CC3)n2)c(F)c1 [Reference Compound A, reference compound]
Output line: 0.82

Input line: Here is the next compound: N#Cc1ccc(COc2cccc(C3CCN(Cc4nc5ccc(C(=O)O)cc5n4Cc4cncs4)CC3)n2)c(F)c1
Output line: 1.4
